- Tested on: C. glabrata 2586
- METHOD: Interaction of AABs (3 µM) with antifungal agents, modified checkerboard
- Format: cell-based, Candida glabrata
- EXPERIMENTAL_CONTEXT: C13 at constant 3 µM, dilutions in µg/mL
MEASURED_PARAMETER: MIC90 of antimycotic combined with C13
# output: bare number, no unit

Briefly, MIC90 of antimycotic combined with C13 measured for "C[C@@H]1[C@H](O)[C@@H](C)/C=C/C=C/C=C/C=C/C=C/C=C/C=C/[C@H](O[C@@H]2O[C@H](C)[C@@H](O)[C@H](N)[C@@H]2O)C[C@@H]2O[C@](O)(C[C@@H](O)C[C@@H](O)[C@H](O)CC[C@@H](O)C[C@@H](O)CC(=O)O[C@H]1C)C[C@H](O)[C@H]2C(=O)O" : 0.12

"OC(Cn1cncn1)(Cn1cncn1)c1ccc(F)cc1F" has a reported MIC90 of antimycotic combined with C13 of 32

Recorded result, "CC[C@@H]([C@H](C)O)n1ncn(-c2ccc(N3CCN(c4ccc(OC[C@@H]5CO[C@@](Cn6cncn6)(c6ccc(F)cc6F)C5)cc4)CC3)cc2)c1=O" , MIC90 of antimycotic combined with C13: 256
